# measured_on: Muscarinic acetylcholine receptor M1 (Homo sapiens)
# test: M1 receptor antagonist activity of analogs, SAR follow-up, cell-based, CHO-K1 hM1, Fluo-4 calcium, ACh EC80 (AID 435021)
# study_conditions: at 30 µM, hits give low values
measured_endpoint: remaining EC80 response (%)

- Cc1cccc(N2CCN(C(=O)CCNS(=O)(=O)c3cccc4nsnc34)CC2)n1: 35.7
- O=C(CCNS(=O)(=O)c1cccc2nsnc12)N1CCN(c2ncc(Cl)cn2)CC1: 7.16
- O=C(CCNS(=O)(=O)c1cccc2nsnc12)N1CCN(c2ccc(Br)cn2)CC1: -0.332

[1] COc1cccnc1N1CCN(C(=O)CCNS(=O)(=O)c2cccc(C#N)c2)CC1
[2] O=C([C@@H](F)CNS(=O)(=O)c1cccc2nonc12)N1CCN(c2ccncc2)CC1
[3] O=C(CCNS(=O)(=O)c1cccc2nsnc12)N1CCN(c2ccccn2)CC1
Data request: List by increasing remaining EC80 response. List the labels according to the requested ordering.
Data returned: 3, 2, 1
(3: 16.5%, 2: 56.6%, 1: 97%)

[a] O=C(CCNS(=O)(=O)c1cccc2nsnc12)N1CCN(c2ccnc(Cl)c2)CC1
[b] N#Cc1ccccc1N1CCN(C(=O)CCNS(=O)(=O)c2cccc3nsnc23)CC1
[c] O=C(C(F)CNS(=O)(=O)c1cccc2nonc12)N1CCN(c2ccncc2)CC1 (stereo unspecified)
[d] O=C(C(F)CNS(=O)(=O)c1cccc2nsnc12)N1CCN(c2ccncc2)CC1 (stereo unspecified)
Data request: Number of compounds to sort: 4. Sort criterion: remaining EC80 response, ascending. Sort the labels as requested; that list is your answer.
Data returned: c, a, d, b
(c: 2.42%, a: 8.91%, d: 13.6%, b: 43.9%)

[I] Cc1cc(Cl)nc(N2CCN(C(=O)CCNS(=O)(=O)c3cccc4nsnc34)CC2)c1C#N
[II] COc1cccnc1N1CCN(C(=O)CCNS(=O)(=O)c2ccc([N+](=O)[O-])cc2)CC1
Data request: Between I and II , which one shows the larger remaining EC80 response value? Bench note: the answer is the label of the chosen record.
Data returned: II
